Test system: Fusarium oxysporum f. sp. lycopersici
ASSAY_NOTES: Antifungal activity against Fusarium oxysporum f. sp. lycopersici after 18 hrs by serial microdilution assay
Type: functional
READOUT: MIC (µg/mL)
Expressed in µg/mL, but write only the number.

MOLECULE	NUMERIC_VALUE
CCCc1cn(CCCN/C=C2\C(=O)C(O)=C(C(C)C)c3cc(C)c(-c4c(C)cc5c(c4O)/C(=C/NCCCn4cc(CCC)nn4)C(=O)C(O)=C5C(C)C)c(O)c32)nn1	64
Cc1cc2c(C(C)C)c(O)c(O)c(C=O)c2c(O)c1-c1c(C)cc2c(C(C)C)c(O)c(O)c(C=O)c2c1O	32
CCCCc1cn(CCCN/C=C2\C(=O)C(O)=C(C(C)C)c3cc(C)c(-c4c(C)cc5c(c4O)/C(=C/NCCCn4cc(CCCC)nn4)C(=O)C(O)=C5C(C)C)c(O)c32)nn1	64
Clc1ccc(COC(Cn2ccnc2)c2ccc(Cl)cc2Cl)c(Cl)c1 (configuration not stated)	16
Cc1cc2c(c(O)c1-c1c(C)cc3c(c1O)/C(=C/NCCn1cc(COCc4ccccc4)nn1)C(=O)C(O)=C3C(C)C)/C(=C/NCCn1cc(COCc3ccccc3)nn1)C(=O)C(O)=C2C(C)C	16

Problem: # lookup: MIC of CCCc1cn(CCN/C=C2\C(=O)C(O)=C(C(C)C)c3cc(C)c(-c4c(C)cc5c(c4O)/C(=C/NCCn4cc(CCC)nn4)C(=O)C(O)=C5C(C)C)c(O)c32)nn1
Result: 64

Problem: Please look up its MIC: CCCCCc1cn(CCN/C=C2\C(=O)C(O)=C(C(C)C)c3cc(C)c(-c4c(C)cc5c(c4O)/C(=C/NCCn4cc(CCCCC)nn4)C(=O)C(O)=C5C(C)C)c(O)c32)nn1
Result: 64

====

Tested on: Trichophyton mentagrophytes
ASSAY_NOTES: Antifungal activity against Trichophyton mentagrophytes ATCC 9533 after 18 hrs by serial microdilution assay
Assay type: functional
ASSAY_CONTEXT: ATCC 9533, 18 h
READOUT: MIC (µg/mL)
# value in µg/mL; strip the unit string

SMILES_STR	MEASURED_ON	MIC [µg/mL]
CCCCc1cn(CCN/C=C2\C(=O)C(O)=C(C(C)C)c3cc(C)c(-c4c(C)cc5c(c4O)/C(=C/NCCn4cc(CCCC)nn4)C(=O)C(O)=C5C(C)C)c(O)c32)nn1	Trichophyton mentagrophytes	256
CCCCc1cn(CCCN/C=C2\C(=O)C(O)=C(C(C)C)c3cc(C)c(-c4c(C)cc5c(c4O)/C(=C/NCCCn4cc(CCCC)nn4)C(=O)C(O)=C5C(C)C)c(O)c32)nn1	Trichophyton mentagrophytes	256
Cc1cc2c(c(O)c1-c1c(C)cc3c(c1O)/C(=C/NCCn1cc(COCc4ccccc4)nn1)C(=O)C(O)=C3C(C)C)/C(=C/NCCn1cc(COCc3ccccc3)nn1)C(=O)C(O)=C2C(C)C	Trichophyton mentagrophytes	256

Problem: Please give the measured MIC for this compound: Cc1cc2c(C(C)C)c(O)c(O)c(C=O)c2c(O)c1-c1c(C)cc2c(C(C)C)c(O)c(O)c(C=O)c2c1O
Result: 128

====

Test system: Aspergillus fumigatus
ASSAY_NOTES: Antifungal activity against Aspergillus fumigatus ATCC 204305 after 18 hrs by serial microdilution assay
Assay type: functional
ASSAY_CONTEXT: ATCC 204305, 18 h
Reported MIC values are given for each entry in this list.
Your reply should be a number followed by the unit it is expressed in.

SMILES_STR	MIC
CCCCCc1cn(CCN/C=C2\C(=O)C(O)=C(C(C)C)c3cc(C)c(-c4c(C)cc5c(c4O)/C(=C/NCCn4cc(CCCCC)nn4)C(=O)C(O)=C5C(C)C)c(O)c32)nn1	256 µg/mL
CCCCc1cn(CCN/C=C2\C(=O)C(O)=C(C(C)C)c3cc(C)c(-c4c(C)cc5c(c4O)/C(=C/NCCn4cc(CCCC)nn4)C(=O)C(O)=C5C(C)C)c(O)c32)nn1	256 µg/mL

Continue with the next compound.
Problem: // MIC lookup, key: CCCCc1cn(CCCN/C=C2\C(=O)C(O)=C(C(C)C)c3cc(C)c(-c4c(C)cc5c(c4O)/C(=C/NCCCn4cc(CCCC)nn4)C(=O)C(O)=C5C(C)C)c(O)c32)nn1
Result: 256 µg/mL

====

Tested on: Streptococcus pneumoniae
ASSAY_NOTES: Antibacterial activity against Streptococcus pneumoniae ATCC 49619 after 18 hrs by serial microdilution assay
Type: functional
ASSAY_CONTEXT: ATCC 49619, 18 h
Entries and their MIC values follow.

SMILES_STR	READOUT	RESULT
CCCCc1cn(CCN/C=C2\C(=O)C(O)=C(C(C)C)c3cc(C)c(-c4c(C)cc5c(c4O)/C(=C/NCCn4cc(CCCC)nn4)C(=O)C(O)=C5C(C)C)c(O)c32)nn1	MIC	> 256 µg/mL
CCCCCc1cn(CCN/C=C2\C(=O)C(O)=C(C(C)C)c3cc(C)c(-c4c(C)cc5c(c4O)/C(=C/NCCn4cc(CCCCC)nn4)C(=O)C(O)=C5C(C)C)c(O)c32)nn1	MIC	> 256 µg/mL
Cc1cc2c(C(C)C)c(O)c(O)c(C=O)c2c(O)c1-c1c(C)cc2c(C(C)C)c(O)c(O)c(C=O)c2c1O	MIC	16 µg/mL

Problem: Which MIC is listed for CCCc1cn(CCN/C=C2\C(=O)C(O)=C(C(C)C)c3cc(C)c(-c4c(C)cc5c(c4O)/C(=C/NCCn4cc(CCC)nn4)C(=O)C(O)=C5C(C)C)c(O)c32)nn1 ?
Result: 256 µg/mL

Problem: Sample CCCCc1cn(CCCN/C=C2\C(=O)C(O)=C(C(C)C)c3cc(C)c(-c4c(C)cc5c(c4O)/C(=C/NCCCn4cc(CCCC)nn4)C(=O)C(O)=C5C(C)C)c(O)c32)nn1 — what was its MIC?
Result: > 256 µg/mL

Problem: MIC for CCCCCc1cn(CCCN/C=C2\C(=O)C(O)=C(C(C)C)c3cc(C)c(-c4c(C)cc5c(c4O)/C(=C/NCCCn4cc(CCCCC)nn4)C(=O)C(O)=C5C(C)C)c(O)c32)nn1 ?
Result: > 256 µg/mL

Problem: MIC lookup needed for Cc1cc2c(c(O)c1-c1c(C)cc3c(c1O)/C(=C/NCCn1cc(COCc4ccccc4)nn1)C(=O)C(O)=C3C(C)C)/C(=C/NCCn1cc(COCc3ccccc3)nn1)C(=O)C(O)=C2C(C)C , thanks.
Result: > 256 µg/mL

====

Reported MIC by item:
Test system: Fusarium oxysporum f. sp. lycopersici
ASSAY_NOTES: Antifungal activity against Fusarium oxysporum f. sp. lycopersici after 18 hrs by serial microdilution assay
Assay type: functional
Number in µg/mL, nothing else.

Worked set:
SMILES_STR	UNITS_SYMBOL	MIC
Cc1cc2c(c(O)c1-c1c(C)cc3c(c1O)/C(=C/NCCCn1cc(COCc4ccccc4)nn1)C(=O)C(O)=C3C(C)C)/C(=C/NCCCn1cc(COCc3ccccc3)nn1)C(=O)C(O)=C2C(C)C	µg/mL	16
CCCCc1cn(CCN/C=C2\C(=O)C(O)=C(C(C)C)c3cc(C)c(-c4c(C)cc5c(c4O)/C(=C/NCCn4cc(CCCC)nn4)C(=O)C(O)=C5C(C)C)c(O)c32)nn1	µg/mL	64

Consider now this further molecule.
Problem: Which measured MIC value corresponds to CCCCCc1cn(CCCN/C=C2\C(=O)C(O)=C(C(C)C)c3cc(C)c(-c4c(C)cc5c(c4O)/C(=C/NCCCn4cc(CCCCC)nn4)C(=O)C(O)=C5C(C)C)c(O)c32)nn1 ?
Result: 64

====

Recorded MIC, one value per entry.
Tested on: Trichophyton mentagrophytes
ASSAY_NOTES: Antifungal activity against Trichophyton mentagrophytes ATCC 9533 after 18 hrs by serial microdilution assay
Assay type: functional
ASSAY_CONTEXT: ATCC 9533, 18 h
Express your answer in µg/mL, writing the number without its unit.

Record excerpt, results attached:
In [3]: df
Out[3]:
                                 smiles_str  numeric_value
0  CCCCCc1cn(CCN/C=C2\C(=O)C(O)=C(C(C)C)c3cc(C)c(-c4c(C)cc5c(c4O)/C(=C/NCCn4cc(CCCCC)nn4)C(=O)C(O)=C5C(C)C)c(O)c32)nn1            256
1  CCCc1cn(CCN/C=C2\C(=O)C(O)=C(C(C)C)c3cc(C)c(-c4c(C)cc5c(c4O)/C(=C/NCCn4cc(CCC)nn4)C(=O)C(O)=C5C(C)C)c(O)c32)nn1            256

Problem: Any idea what MIC was measured for CCCCCc1cn(CCCN/C=C2\C(=O)C(O)=C(C(C)C)c3cc(C)c(-c4c(C)cc5c(c4O)/C(=C/NCCCn4cc(CCCCC)nn4)C(=O)C(O)=C5C(C)C)c(O)c32)nn1 ?
Result: 256
